Please provide measured first-order primary biodegradation rate constant k for the entries that follow.
measurement-protocol: first-order primary biodegradation rate constant k (sorption-corrected, fDis-corrected) (d-1); higher = faster biodegradation
condition-details: river segment: Switzerland (CH) R_Contam; incubation temperature 17 °C
Answer with the value's number alone.

# input Return value of first-order primary biodegradation rate constant k for input `CNC(=C[N+](=O)[O-])NCCSCc1ccc(CN(C)C)o1` , no commentary.
# output 0.559

# input Supply reported first-order primary biodegradation rate constant k belonging to this compound: CN(C)CCCC1(c2ccc(F)cc2)OCc2cc(C#N)ccc21 (stereo not given)
# output 0.288

# input Quickly give me recorded first-order primary biodegradation rate constant k for `CCc1cccc(CC)c1N(COC)C(=O)CCl`
# output 0.223

# input Identify measured first-order primary biodegradation rate constant k corresponding to `COc1cc(Cc2cnc(N)nc2N)cc(OC)c1OC`
# output 1.65

# input Specify measured first-order primary biodegradation rate constant k for C=CCOc1ccccc1OCC(O)CNC(C)C (stereo not given) .
# output 0.0926

# input Provide one value: measured first-order primary biodegradation rate constant k of CC(C)NCC(O)c1ccc(NS(C)(=O)=O)cc1 (stereo not given)
# output 0.0937

# input Tell me its first-order primary biodegradation rate constant k given Cc1ccc(C(C)NC(=O)[C@@H](NC(=O)OC(C)C)C(C)C)cc1 (stereo not given in full) as the entry.
# output 0.123

# input Using known records, supply first-order primary biodegradation rate constant k for `CC(=O)Nc1ccc(O)cc1`
# output 3.87

# input Return first-order primary biodegradation rate constant k for the following compound: `Nc1ccc(S(=O)(=O)Nc2nccs2)cc1`
# output 0.119

# input Note down first-order primary biodegradation rate constant k recorded for CC(C(=O)O)c1cccc(C(=O)c2ccccc2)c1 (stereo not given)
# output 0.829

# input Look up first-order primary biodegradation rate constant k of `CC[C@@H](C(N)=O)N1CCCC1=O` and report it.
# output 0.35

# input Give reported first-order primary biodegradation rate constant k value for CN(C)CCN1C(=O)c2ccccc2N(C)c2ccccc21 [Dibenzepin]
# output 0.0245

# input Consider the compound `O=[N+]([O-])c1ccc(Cc2ccncc2)cc1` and give its recorded first-order primary biodegradation rate constant k.
# output 0.45

# input Note down first-order primary biodegradation rate constant k recorded for `Cn1c(=O)c2c(ncn2C)n(C)c1=O`
# output 0.144

# input Give the reported value of first-order primary biodegradation rate constant k for this record: `CCCCCCCCCCN`
# output 11.7

# input Give first-order primary biodegradation rate constant k for `CC1=CC(=O)NS(=O)(=O)O1`
# output 0.0997

# input Read off the recorded first-order primary biodegradation rate constant k for NC(=O)c1cccnc1 [Nicotinamide]
# output 0.0625

# input For the compound `CCN(CC)CC(=O)Nc1c(C)cccc1C` , give its reported first-order primary biodegradation rate constant k.
# output 0.00379

# input Give first-order primary biodegradation rate constant k for COc1cccc(C2(O)CCCCC2CN(C)C)c1 (stereo not given)
# output 0.00497

# input Please give the documented first-order primary biodegradation rate constant k of `CC(C)N(C(=O)CCl)c1ccccc1`
# output 0.429

# input Quick one: give measured first-order primary biodegradation rate constant k for `CCCCC(=O)N(Cc1ccc(-c2ccccc2-c2nnn[nH]2)cc1)[C@H](C(=O)O)C(C)C`
# output 0.52

# input Quickly give me recorded first-order primary biodegradation rate constant k for `NCC1(CC(=O)O)CCCCC1`
# output 0.109

# input Specify measured first-order primary biodegradation rate constant k for `COc1cc(NS(=O)(=O)c2ccc(N)cc2)nc(OC)n1` .
# output 0.00496

# input Return the recorded first-order primary biodegradation rate constant k value; entry: `Cc1ccc(-c2nc3ccc(C)cn3c2CC(=O)N(C)C)cc1`
# output 0.0249

# input Dear colleague, please send me the reported first-order primary biodegradation rate constant k for `Nc1nc(NC2CC2)c2ncn([C@H]3C=C[C@@H](CO)C3)c2n1` when you can.
# output 1.18
